Cited source: paper PMC5540273

System: LYN;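 note: KINOMEscan kinase panel screen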
Conditions: concentration: 1 μM,replicates: in singlicate; n = 1
# %Inh values compiled below

>  <MOLECULE>
O=C(NOCC1CC1)c1cc(Br)c(F)c(F)c1Nc1ccc(I)cc1Cl

>  <UNIT_TAG>
%

>  <%Inh>
9

$$$$
>  <MOLECULE>
CC(C)c1nc(-c2cccc(NS(=O)(=O)c3ccccc3)c2)c(-c2ccnc(Nc3ccc4c(c3)CN(C)CC4)n2)s1

>  <UNIT_TAG>
%

>  <%Inh>
98

$$$$
>  <MOLECULE>
Cc1cccc(-c2nc(Nc3ccncc3)c3sccc3n2)n1

>  <UNIT_TAG>
%

>  <%Inh>
18

$$$$
>  <MOLECULE>
CC(=O)Nc1ccc(-c2cc3ncnc(SCC(=O)O)c3s2)cc1

>  <UNIT_TAG>
%

>  <%Inh>
9

$$$$
>  <MOLECULE>
COc1cccc(CNC(=O)NC2CCN(c3ccnc(Nc4cc(OC)c(OC)c(OC)c4)n3)C2)c1 (centres unmarked)

>  <UNIT_TAG>
%

>  <%Inh>
0

$$$$
>  <MOLECULE>
c1ccc(Oc2ccc(Nc3ccnc4ccc(-c5ccccn5)cc34)cc2)cc1

>  <UNIT_TAG>
%

>  <%Inh>
22

$$$$
>  <MOLECULE>
CS(=O)(=O)Nc1ccc(-c2ccnc3[nH]ccc23)cc1

>  <UNIT_TAG>
%

>  <%Inh>
0

$$$$
>  <MOLECULE>
COc1cccc(C2=C(Nc3cccc(Cl)c3)C(=O)NC2=O)c1

>  <UNIT_TAG>
%

>  <%Inh>
0

$$$$
>  <MOLECULE>
CC(C)S(=O)(=O)N1CCN(Cc2ccc3c(c2)nc(NC(=O)c2ccsc2)n3C[C@H](O)c2ccccc2)CC1

>  <UNIT_TAG>
%

>  <%Inh>
0

$$$$
>  <MOLECULE>
CCCC(=O)Nc1n[nH]c2ncccc12

>  <UNIT_TAG>
%

>  <%Inh>
0

$$$$
>  <MOLECULE>
CN(c1ccc2c(c1)nc(NCc1ccc(F)cc1)n2C)c1ccnc(Nc2ccc(CS(C)(=O)=O)cc2)n1.Cl

>  <UNIT_TAG>
%

>  <%Inh>
68

$$$$
>  <MOLECULE>
Cc1ccc(CC(=O)N2CCc3cc(-c4cn(C)c5ncnc(N)c45)ccc32)cc1

>  <UNIT_TAG>
%

>  <%Inh>
23

$$$$
>  <MOLECULE>
Cn1cc(-c2cccc3c(N)c(C(N)=O)nnc23)cn1

>  <UNIT_TAG>
%

>  <%Inh>
12

$$$$
>  <MOLECULE>
COc1ccc(Nc2nccc(N3CCC(NC(=O)c4cccc(C#N)c4)C3)n2)cc1 (centres unmarked)

>  <UNIT_TAG>
%

>  <%Inh>
0

$$$$
>  <MOLECULE>
CS(=O)c1ccc(-c2coc3ccc(-c4n[nH]c(=O)o4)cc23)cc1 (centres unmarked)

>  <UNIT_TAG>
%

>  <%Inh>
16

$$$$
>  <MOLECULE>
NC(=O)Nc1sc(-c2ccc(F)cc2)cc1C(N)=O

>  <UNIT_TAG>
%

>  <%Inh>
0

$$$$
>  <MOLECULE>
Cc1ccn2nc(-c3ccc(F)cc3)c(-c3ccncc3)c2c1.Cl

>  <UNIT_TAG>
%

>  <%Inh>
0

$$$$
>  <MOLECULE>
Cn1ccc2ncnc(Oc3ccc(NC(=O)Nc4cc(C(C)(C)C)on4)c(Cl)c3)c21

>  <UNIT_TAG>
%

>  <%Inh>
95.4

$$$$
>  <MOLECULE>
COc1cc2c(Nc3ccc(NC(=O)c4ccccc4)cc3)ncnc2cc1OCCCN1CCOCC1

>  <UNIT_TAG>
%

>  <%Inh>
52

$$$$
>  <MOLECULE>
O=C(Nc1cccc(Oc2ccc3nccn3n2)c1)Nc1cccc(C(F)(F)F)c1

>  <UNIT_TAG>
%

>  <%Inh>
42

$$$$
>  <MOLECULE>
CSc1nccc(-c2c(-c3ccc(F)cc3)ncn2CCCN2CCOCC2)n1.Cl

>  <UNIT_TAG>
%

>  <%Inh>
0

$$$$
>  <MOLECULE>
COC(=O)c1cccc(NC(=O)NC2CCN(c3ccnc(NCc4ccc(F)cc4)n3)CC2)c1

>  <UNIT_TAG>
%

>  <%Inh>
0

$$$$
>  <MOLECULE>
Cl.Cl.NC[C@H](CC1CCCCC1)NC(=O)c1ccc(-c2ccnc3[nH]ccc23)s1

>  <UNIT_TAG>
%

>  <%Inh>
0

$$$$
>  <MOLECULE>
COc1cc2nccc(Nc3ccc(Oc4ccccc4)cc3)c2cc1OC.Cl

>  <UNIT_TAG>
%

>  <%Inh>
71

$$$$
>  <MOLECULE>
CCN1CCN(CCCC(=O)Nc2n[nH]c3nc(-c4ccc(O)cc4)c(Br)cc23)CC1

>  <UNIT_TAG>
%

>  <%Inh>
0

$$$$
>  <MOLECULE>
CCNCC(Cc1ccccc1)NC(=O)c1cc(Br)c(-c2ccnc3[nH]ccc23)s1.Cl.Cl (centres unmarked)

>  <UNIT_TAG>
%

>  <%Inh>
0

$$$$
>  <MOLECULE>
CS(=O)(=O)c1cccc(CNc2nc(Nc3ccc4c(c3)[C@@H]3C[C@@H]4CNC3=O)ncc2C(F)(F)F)c1

>  <UNIT_TAG>
%

>  <%Inh>
25

$$$$
>  <MOLECULE>
Cc1cccc2c(-c3ccncc3)c(-c3ccc(F)cc3)nn12.Cl

>  <UNIT_TAG>
%

>  <%Inh>
0

$$$$
>  <MOLECULE>
Cl.c1ccc(Oc2ccc(Nc3ccnc4cc(-c5ccc(CN6CCNCC6)o5)ccc34)cc2)nc1

>  <UNIT_TAG>
%

>  <%Inh>
4

$$$$
>  <MOLECULE>
O=C1NCCc2[nH]c(-c3ccncc3)cc21

>  <UNIT_TAG>
%

>  <%Inh>
0

$$$$
>  <MOLECULE>
NC(=O)c1ccc(-c2cc3ncnc(SCC(=O)O)c3s2)cc1

>  <UNIT_TAG>
%

>  <%Inh>
23

$$$$
>  <MOLECULE>
CN(c1ccccc1CNc1nc(Nc2ccc3c(c2)CC(=O)N3)ncc1C(F)(F)F)S(C)(=O)=O

>  <UNIT_TAG>
%

>  <%Inh>
26

$$$$
>  <MOLECULE>
COC(=O)Nc1nc2cc(Oc3ccc(NC(=O)Nc4cc(C(F)(F)F)ccc4Cl)cc3)ccc2[nH]1.Cl

>  <UNIT_TAG>
%

>  <%Inh>
75

$$$$
>  <MOLECULE>
CC(C(=O)NC1CCN(c2ccnc(Nc3ccc(F)cc3)n2)C1)c1ccc(Cl)cc1 (centres unmarked)

>  <UNIT_TAG>
%

>  <%Inh>
0

$$$$
>  <MOLECULE>
CN1CCN(CCCNc2nccc(-c3c(-c4ccc(F)cc4)nn4cc(C(N)=O)ccc34)n2)CC1

>  <UNIT_TAG>
%

>  <%Inh>
0

$$$$
